GI50 listing for selected molecules.
system: PC-3 prostate; assay: NCI tumour cell line growth inhibition, 48 h

# molecule, GI50
measured = [
    ("CN1CCN(Cc2ccc(NC(=O)c3cncc(C#Cc4c(N)ncc5ccc(F)cc45)c3)cc2C(F)(F)F)CC1", "1230 nM"),
    ("CCOC(=O)c1ccccc1NC(c1ccccc1)c1ccc2cccnc2c1O (stereo not given)", "5130 nM"),
    ("CCN(CC)CCC(CNc1c2ccc(Cl)cc2nc2ccc(OC)cc12)c1ccccc1 (stereo not given)", "1960 nM"),
    ("CN(C)CCCn1c2c(c3ccc([N+](=O)[O-])cc3c1=O)C(=O)c1ccccc1-2", "6060 nM"),
    ("COc1ccc(-c2nccn2-c2cc(OC)c(OC)c(OC)c2)cc1", "1810 nM"),
    ("O=C(/C=C\\c1ccc(Cl)c(Cl)c1)c1ccccc1", "5930 nM"),
    ("C=CC(=O)N1CC[C@@H](Oc2nc(Nc3ccc(N4CCC(N5CCN(C)CC5)CC4)cc3)c(C(N)=O)nc2CC)C1", "> 100000 nM"),
    ("COc1c(C)cnc(Cn2cnc3c(Cl)nc(N)nc32)c1C", "359 nM"),
    ("Cn1cc(C2=C(c3cn(CCCSC(=N)N)c4ccccc34)C(=O)NC2=O)c2ccccc21", "3380 nM"),
    ("Cc1ccc(S(=O)(=O)NC(CCCCN)C(=O)CCl)cc1 (stereo not given)", "52600 nM"),
    ("CCCCc1ccc(C(N)=O)nc1", "> 100000 nM"),
    ("CNCc1ccc(C)c(NC(=O)c2ccc(Nc3nc(-c4ccccc4)c4ccccc4n3)cc2)c1", "1920 nM"),
    ("COc1ccc(C2CC(c3cccc(Nc4ccnc5cc(Cl)ccc45)c3)=NN2c2ccc(Cl)cc2)cc1 (stereo not given)", "1180 nM"),
    ("COc1ccc(/C=C2\\CN(Cc3cn(CCCNc4ccnc5cc(Cl)ccc45)nn3)C/C(=C\\c3ccc(OC)cc3)C2=O)cc1", "2900 nM"),
    ("COc1cc2c(cc1Nc1nc(Nc3ccsc3C(N)=O)c3cc[nH]c3n1)N(C(=O)CN(C)C)CCC2", "1170 nM"),
]
